Test: reversal of MRP1-mediated doxorubicin resistance, pilot screen, H69AR cells, doxorubicin co-treatment (AID 601)
Conditions: H69AR cells + 2 uM doxorubicin, CellTiter-Glo, 72 h; at 10 µM; hits give high values
Calls of active or inactive are those of the source.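 The calls were made as follows: active = viability loss from added drug above about 55%, and viability with drug at most 40%, in both replicates (limit read from the data, passing the limit was not always enough); inconclusive = both conditions met in only one replicate; inactive = neither replicate meets both conditions.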
# differential viability (reversal) per entry

Below: 8 compounds and their reported differential viability (reversal).
Cc1nc2c(-c3ccccc3)c(C)nn2c(C)c1CCC(=O)O :: -0.87% (inactive)
CN1CCCN(C(=O)c2cc(=O)[nH]c3ccccc23)c2nc3ccccc3nc21 :: 0.575% (inactive)
COC(=O)c1[nH]c2ccc(F)cc2c1NS(=O)(=O)c1ccc(OC)cc1OC :: -15.5% (inactive)
CCCCc1nc(NCCNC(=O)c2ccco2)c(C#N)c2c1CSC(C)(C)C2 :: 15.8% (inactive)
COc1ccc(CC(=O)N2CCOCC2)cc1OC :: -2.21% (inactive)
COc1ccc2[nH]c(=O)c(CNC3CCCCC3)cc2c1 :: 5% (inactive)
Cc1c(C(=O)OCC(C)C)[nH]c2c1C(=O)CC(c1ccco1)C2 (stereo not given) :: -22.6% (inactive)
CCOC(=O)N1CCN(c2cc(=O)n(-c3ccc(OCC)cc3)c(=O)[nH]2)CC1 :: 6.84% (inactive)

Given the compound CN(Cc1ccccc1)Cc1c[nH]c2ccccc12 , write its reported differential viability (reversal).
-6.54% (inactive)

Given the compound CCn1c(C)nc2cc(C(=O)OCCC(F)(F)F)ccc21 , write its reported differential viability (reversal).
-3.94% (inactive)

Given the compound Cc1c(C(=O)N2CCCC2)sc(NC(=O)c2cccs2)c1C#N , write its reported differential viability (reversal).
-0.35% (inactive)

Given the compound CSCCC(C(=O)Nc1ccc2c(c1)OCO2)N1C(=O)c2ccccc2C1=O (stereo not given) , write its reported differential viability (reversal).
4.44% (inactive)

Given the compound CCN(C(=O)c1cc(Cl)ccc1OC)C1CCCCC1 , write its reported differential viability (reversal).
-10.6% (inactive)

Given the compound CC(C)(C)n1cnc2cc(NS(=O)(=O)c3ccc(Br)cc3)ccc21 , write its reported differential viability (reversal).
-8.39% (inactive)

Given the compound COc1ccccc1NC(=O)c1nnn(CC(=O)Nc2ccccc2)c1N , write its reported differential viability (reversal).
-6.95% (inactive)

Given the compound CN(C)c1ccc2c(c1)OC(N)=C(C#N)C2c1cccc(F)c1 (stereo not given) , write its reported differential viability (reversal).
-41% (inactive)

Given the compound O=c1c2ccccc2nnn1CSc1nc2cc(Cl)ccc2c(=O)n1Cc1ccco1 , write its reported differential viability (reversal).
4.62% (inactive)

Given the compound COc1ccc(-n2c(Cc3cccn3C)nnc2SCC(=O)Nc2cccc(C)c2C)cc1 , write its reported differential viability (reversal).
-2.92% (inactive)

Given the compound COc1ccc2nc(N3CCC(C)CC3)c(C#N)cc2c1 , write its reported differential viability (reversal).
3.77% (inactive)

Given the compound CC12CCC(C(=O)N3CCCCC3)(CC1=O)C2(C)C (stereo not given) , write its reported differential viability (reversal).
0.59% (inactive)

Given the compound O=C(CN1CCOCC1)N1CCCc2c1c(=O)oc1ccc(OCc3ccccc3)cc21 , write its reported differential viability (reversal).
4.61% (inactive)

Given the compound CN(CC(=O)N1CCN(c2ccc(F)cc2)CC1)S(=O)(=O)c1ccc(F)cc1 , write its reported differential viability (reversal).
-7.95% (inactive)

Given the compound CC(C)Cn1c(-c2ccc(F)cc2)n[nH]c1=S , write its reported differential viability (reversal).
8.11% (inactive)

Given the compound COc1ccc(S(=O)(=O)Nc2ccc(S(=O)(=O)N3CCCCC3)cc2)cc1OC , write its reported differential viability (reversal).
-3.68% (inactive)

Given the compound Cc1ccc(-c2noc(C3CCCN(C(=O)c4ccc(F)cc4F)C3)n2)cc1 (stereo not given) , write its reported differential viability (reversal).
1.88% (inactive)

Given the compound Cn1nnnc1SCC(=O)N1CCN(c2cccc(Cl)c2)CC1 , write its reported differential viability (reversal).
8.05% (inactive)

Given the compound O=C(CN(C(=O)CCNC(=O)c1ccco1)c1ccccc1)NC1CCCC1 , write its reported differential viability (reversal).
-5.44% (inactive)

Given the compound O=c1oc2ccccc2c2nccnc12 , write its reported differential viability (reversal).
5.08% (inactive)

Given the compound Cc1ccc(/C(O)=C2/C(=O)C(=O)N(Cc3ccco3)C2c2cccs2)cc1 (stereo not given) , write its reported differential viability (reversal).
-13.1% (inactive)
